Where these numbers come from: ChEMBL document CHEMBL3351526

Assay: Stability in human liver microsomes assessed as intrinsic clearance
Type: ADME
Conditions: read-out: CLH
MEASURED QUANTITY: microsomal CLint (µL/min/mg)

Request the reported microsomal CLint associated with COc1ccc(CC(=O)NC(=N)N[C@H](CC2CCCCC2)C(=O)NCc2ccc(-c3nnn[nH]3)cc2)cc1OC 76

I: COc1ccc(CC(=O)NC(=N)N[C@H](CC(C)C)C(=O)NCc2ccc(-c3nnn[nH]3)cc2)cc1OC
II: COc1cc(Br)c(CC(=O)NC(=N)N[C@H](CC2CCCCC2)C(=O)NCc2cccc(-c3nnn[nH]3)c2)cc1OC
Field: entry with larger microsomal CLint (options I / II ). Lab note: record the label of whichever item you select. II

I: COc1ccc(CC(=O)NC(=N)N[C@H](CC(C)C)C(=O)NCc2ccc(-c3nnn[nH]3)c(F)c2)cc1OC
II: COc1cc(CNC(=O)[C@@H](CC(C)C)NC(=N)NC(=O)Cc2ccc(OC)c(OC)c2)ccc1F
III: COc1cc(Br)c(CC(=O)NC(=N)N[C@H](CC(C)C)C(=O)NCc2cccc(-c3nnn[nH]3)c2)cc1OC
IV: COc1ccc(CNC(=O)[C@@H](CC(C)C)NC(=N)NC(=O)Cc2ccc(OC)c(OC)c2)cc1OC
List these items ordered by microsomal CLint, big to small. List labels; respect the requested ordering. II, IV, III, I

###

Assay: Stability in mouse liver microsomes assessed as intrinsic clearance
Type: ADME
Conditions: read-out: CLH
MEASURED QUANTITY: microsomal CLint (µL/min/mg)

Request the reported microsomal CLint associated with COc1cc(Br)c(CC(=O)NC(=N)N[C@H](CC(C)C)C(=O)NCc2cccc(-c3nnn[nH]3)c2)cc1OC 38

Request the reported microsomal CLint associated with COc1cc(Br)c(CC(=O)NC(=N)N[C@H](CC2CCCCC2)C(=O)NCc2cccc(-c3nnn[nH]3)c2)cc1OC 40

###

Target: Renin (Homo sapiens, UniProt P00797)
Sequence (P00797 whole entry): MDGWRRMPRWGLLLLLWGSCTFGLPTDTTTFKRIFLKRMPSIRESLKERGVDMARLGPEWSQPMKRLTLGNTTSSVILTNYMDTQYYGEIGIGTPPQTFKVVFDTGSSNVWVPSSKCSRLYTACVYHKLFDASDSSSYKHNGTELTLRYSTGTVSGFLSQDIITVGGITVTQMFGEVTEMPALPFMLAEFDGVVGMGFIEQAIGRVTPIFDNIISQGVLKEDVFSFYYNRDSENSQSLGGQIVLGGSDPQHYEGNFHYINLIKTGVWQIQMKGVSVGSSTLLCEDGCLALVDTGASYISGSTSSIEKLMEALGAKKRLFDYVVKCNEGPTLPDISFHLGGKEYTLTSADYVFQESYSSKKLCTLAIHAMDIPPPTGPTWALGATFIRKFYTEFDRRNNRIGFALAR
Assay: Inhibition of human recombinant renin using quenched Dabcyl-g-Abu-IHPFHLVIHT-Edans peptide substrate by fluorescence-based assay
pIC50: −log10 of the molar value.
Property: pIC50; scope: individual compounds

Observe how each entry below is paired with its result.
// map COc1ccc(CNC(=N)NC(=O)Cc2cc(OC)c(OC)cc2[N+](=O)[O-])cc1OC to recorded pIC50 (system: Renin (Homo sapiens, UniProt P00797)) < 4.52

// map COc1cc(CC(=O)NC(=N)NCc2ccccc2Cl)c([N+](=O)[O-])cc1OC to recorded pIC50 (system: Renin (Homo sapiens, UniProt P00797)) < 4.52

// map COc1ccc(Cl)c(CC(=O)NC(=N)NCc2ccccc2)c1 to recorded pIC50 (system: Renin (Homo sapiens, UniProt P00797)) < 4.52

// map COc1cc(CNC(=O)[C@@H](CC2CCCCC2)NC(=N)NC(=O)Cc2ccc(OC)c(OC)c2)ccc1F to recorded pIC50 (system: Renin (Homo sapiens, UniProt P00797)) 4.80

// map COc1ccc(CNC(=O)[C@@H](Cc2ccccc2)NC(=N)NC(=O)Cc2ccc(OC)c(OC)c2)cc1OC to recorded pIC50 (system: Renin (Homo sapiens, UniProt P00797)) < 4.52

Others:
// map COc1cc(CC(=O)NC(=N)NCc2ccc(Cl)c(Cl)c2)c([N+](=O)[O-])cc1OC to recorded pIC50 (system: Renin (Homo sapiens, UniProt P00797)) < 4.52

// map COc1cc(CC(=O)NC(=N)NCc2ccc(Cl)cc2)c([N+](=O)[O-])cc1OC to recorded pIC50 (system: Renin (Homo sapiens, UniProt P00797)) < 4.52

###

Target: Cathepsin D (Homo sapiens, UniProt P07339)
Sequence (P07339 65-162 limits assumed): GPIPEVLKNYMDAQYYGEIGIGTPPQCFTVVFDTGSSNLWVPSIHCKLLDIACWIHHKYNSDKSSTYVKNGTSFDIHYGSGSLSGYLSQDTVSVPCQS
Sequence (P07339 169-412 limits assumed): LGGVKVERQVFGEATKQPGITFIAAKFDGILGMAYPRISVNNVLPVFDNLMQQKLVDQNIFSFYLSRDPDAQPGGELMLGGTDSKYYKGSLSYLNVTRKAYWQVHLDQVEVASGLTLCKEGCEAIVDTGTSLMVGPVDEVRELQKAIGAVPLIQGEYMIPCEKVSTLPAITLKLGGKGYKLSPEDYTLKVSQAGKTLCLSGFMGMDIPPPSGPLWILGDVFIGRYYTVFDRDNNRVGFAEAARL
MEASURED QUANTITY: IC50 (nM)
Express it in nM; write the number only.

// map COc1cc(Br)c(C(=O)N[C@@H](Cc2cccc(Oc3ccccc3)c2)[C@@H](O)CN(CCc2ccc(Cl)cc2Cl)C(=O)CCN2C(=O)c3ccccc3C2=O)cc1OC to recorded IC50 (system: Cathepsin D (Homo sapiens, UniProt P07339)) 85

###

Biological target: Cathepsin D (Bos taurus)
Sequence (P80209 whole entry): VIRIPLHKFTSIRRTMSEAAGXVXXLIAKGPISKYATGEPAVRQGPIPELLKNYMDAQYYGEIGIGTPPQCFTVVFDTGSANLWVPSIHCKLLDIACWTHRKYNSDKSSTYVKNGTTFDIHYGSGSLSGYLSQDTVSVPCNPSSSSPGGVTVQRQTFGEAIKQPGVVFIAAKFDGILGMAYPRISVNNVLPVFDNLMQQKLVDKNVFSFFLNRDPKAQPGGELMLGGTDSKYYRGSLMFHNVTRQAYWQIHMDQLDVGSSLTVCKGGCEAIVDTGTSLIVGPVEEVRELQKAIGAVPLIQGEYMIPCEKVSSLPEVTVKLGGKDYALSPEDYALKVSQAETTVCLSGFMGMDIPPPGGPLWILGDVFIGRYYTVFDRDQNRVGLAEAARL
MEASURED QUANTITY: IC50 (µM)
Express it in µM; write the number only.

// map COc1ccc(CC(=O)NC(=N)N[C@H](CC2CCCCC2)C(=O)NCc2ccc(-c3nnn[nH]3)cc2)cc1OC to recorded IC50 (system: Cathepsin D (Bos taurus)) 1.8

###

Test: Apparent permeability across apical to basolateral side in human Caco2 cells
Assay type: ADME, cell-based
Conditions: Caco-2
MEASURED QUANTITY: Papp A→B (×10⁻⁶ cm/s)

a: COc1ccc(CC(=O)NC(=N)N[C@H](CC2CCCCC2)C(=O)NCc2ccc(-c3nnn[nH]3)cc2)cc1OC
b: COc1cc(CNC(=O)[C@@H](CC2CCCCC2)NC(=N)NC(=O)Cc2ccc(OC)c(OC)c2)ccc1F
Field: entry with larger Papp A→B (options a / b ). Lab note: record the label of whichever item you select. b
(b: 5 ×10⁻⁶ cm/s, a: 0.25 ×10⁻⁶ cm/s)

###

Target: Cathepsin D (Homo sapiens)
Assay: Inhibition of human liver cathepsin D using MCA-labeled GKPILFFRLK(Dnp)-D-R-NH2 peptide by fluorescence-based assay
MEASURED QUANTITY: IC50 (µM)

Observe how each entry below is paired with its result.
// map COc1ccc(CNC(=N)NC(=O)Cc2cc(OC)c(OC)cc2[N+](=O)[O-])cc1OC to recorded IC50 (system: Cathepsin D (Homo sapiens)) 2.7

// map COc1ccc(CC(=O)NC(=N)N[C@H](CC2CCCCC2)C(=O)NCc2ccc(F)c(F)c2)cc1OC to recorded IC50 (system: Cathepsin D (Homo sapiens)) 0.17

// map COc1cc(CC(=O)NC(=N)NCc2ccc(Cl)c(Cl)c2)c([N+](=O)[O-])cc1OC to recorded IC50 (system: Cathepsin D (Homo sapiens)) 0.44

// map COc1ccc(CCC(=O)NC(=N)NCc2ccccc2)cc1OC to recorded IC50 (system: Cathepsin D (Homo sapiens)) 25

// map COc1cc(CCCC(=O)NC(=N)NCc2ccccc2)c([N+](=O)[O-])cc1OC to recorded IC50 (system: Cathepsin D (Homo sapiens)) 18

// map COc1ccc(CC(=O)NC(=N)NCc2ccc(C)cc2)cc1OC to recorded IC50 (system: Cathepsin D (Homo sapiens)) 1.9

// map COc1ccc(CC(=O)NC(=N)NCc2ccc(N)cc2)cc1OC to recorded IC50 (system: Cathepsin D (Homo sapiens)) 29

// map COc1cc(CC(=O)NC(=N)NCc2ccccc2)c([N+](=O)[O-])cc1OC to recorded IC50 (system: Cathepsin D (Homo sapiens)) 10

// map COc1cc(CC(=O)NC(=N)NCc2ccccc2Cl)c([N+](=O)[O-])cc1OC to recorded IC50 (system: Cathepsin D (Homo sapiens)) 3

A: COc1cc(CC(=O)NC(=N)NCc2ccc(Cl)cc2)c([N+](=O)[O-])cc1OC
B: COc1ccc(Cl)c(CC(=O)NC(=N)NCc2ccccc2)c1
Would you kindly point out which of A and B has the smaller IC50 figure? Lab note: record the label of whichever item you select. A
(A: 1.5 µM, B: 6.1 µM)

###

Test: Stability in human liver microsomes assessed as intrinsic clearance
Assay type: ADME
Settings: read-out: CLH
Property: microsomal CLint; scope: individual compounds

Request the reported microsomal CLint associated with COc1ccc(CNC(=O)[C@@H](Cc2ccccc2)NC(=N)NC(=O)Cc2ccc(OC)c(OC)c2)cc1OC > 1000 µL/min/mg

Request the reported microsomal CLint associated with COc1cc(CNC(=O)[C@@H](CC2CCCCC2)NC(=N)NC(=O)Cc2cc(OC)c(OC)cc2Br)ccc1F > 1000 µL/min/mg

Request the reported microsomal CLint associated with COc1cc(CNC(=O)[C@@H](CC2CCCCC2)NC(=N)NC(=O)Cc2ccc(OC)c(OC)c2)ccc1F > 1000 µL/min/mg

###

Molecular target: Renin (Homo sapiens, UniProt P00797)
Assay: Inhibition of human recombinant renin using quenched Dabcyl-g-Abu-IHPFHLVIHT-Edans peptide substrate by fluorescence-based assay
pIC50: −log10 of the molar value.
MEASURED QUANTITY: pIC50

Observe how each entry below is paired with its result.
Request the reported pIC50 associated with COc1ccc(CCC(=O)NC(=N)NCc2ccccc2)cc1OC 4.70

Request the reported pIC50 associated with COc1cc(CC(=O)NC(=N)NCc2ccccc2)c([N+](=O)[O-])cc1OC < 4.52

Request the reported pIC50 associated with COc1cc(CCCC(=O)NC(=N)NCc2ccccc2)c([N+](=O)[O-])cc1OC < 4.52

Next compound, please.
Request the reported pIC50 associated with COc1ccc(CNC(=O)[C@@H](CC2CCCCC2)NC(=N)NC(=O)Cc2ccc(OC)c(OC)c2)cc1F 4.89
